- System: SRPK1;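 further: KINOMEscan kinase panel screen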
- particulars: concentration: 1 μM, replicates: in singlicate; n = 1
attribute.measured: %Inh (%)
Express it in %; write the number only.

Lab note: measured %Inh of Cc1cc(-c2c(-c3ccc(F)cc3)ncn2CCCN2CCOCC2)nc(N)n1 was 0

Lab note: measured %Inh of CN(c1ccc(NC(=O)Nc2cccc(Cl)c2)cc1)c1ccnc(N)n1.Cl was 3

Lab note: measured %Inh of CC(C)NCC(Cc1ccccc1)NC(=O)c1cc(Br)c(-c2ccnc3[nH]ccc23)s1.Cl.Cl (centres unmarked) was 43

Lab note: measured %Inh of CC(=O)Nc1cn2nc(Oc3cccc(NC(=O)c4cccc(C(F)(F)F)c4)c3)ccc2n1 was 0

Lab note: measured %Inh of COC(=O)Nc1nc2ccc(Oc3ccc(NC(=O)Nc4cc(C(F)(F)F)ccc4F)cc3)cc2[nH]1.Cl was 61

Lab note: measured %Inh of N#CC1(c2cccc(C(=O)Nc3cccc(Oc4ccc5nc(NC(=O)C6CC6)sc5n4)c3)c2)CC1 was 0

Lab note: measured %Inh of CN(C)c1ncnc2nc[nH]c12 was 0

Lab note: measured %Inh of Cn1cc(-c2ccc3c(c2)CCN3C(=O)Cc2cc(F)cc(C(F)(F)F)c2)c2c(N)ncnc21 was 18

Lab note: measured %Inh of Cl.Cl.NCC(NC(=O)c1cc(-c2cccnc2)c(-c2ccnc3[nH]ccc23)s1)c1ccccc1 (centres unmarked) was 44

Lab note: measured %Inh of O=C(Nc1n[nH]c2nc(-c3ccccc3O)ccc12)C1CC1 was 0

Lab note: measured %Inh of Cn1cc(-c2ccc3c(c2)CCN3C(=O)Cc2cc(F)cc(F)c2F)c2c(N)ncnc21 was 34

Lab note: measured %Inh of Cc1ccccc1CC(=O)N1CCc2cc(-c3cn(C)c4ncnc(N)c34)ccc21 was 18

Lab note: measured %Inh of CN1CCN(Cc2ccc(NC(=O)Nc3ccc(N(C)c4ccnc(Nc5ccc(CS(C)(=O)=O)cc5)n4)cc3)cc2)CC1.Cl was 92.3

Lab note: measured %Inh of CC(C)c1nc(-c2cccc(NS(=O)(=O)c3c(F)cccc3F)c2)c(-c2ccnc(Nc3ccc(N4CCOCC4)nc3)n2)s1.Cl was 48

Lab note: measured %Inh of NCCC(NC(=O)c1cc(Br)c(-c2ccnc3[nH]ccc23)s1)c1ccccc1.O=C(O)C(F)(F)F.O=C(O)C(F)(F)F (centres unmarked) was 81

Lab note: measured %Inh of O=C(O)C(F)(F)F.O=c1[nH]ccc2nc(N[C@@H]3CCNC3)nc(Nc3ccc4c(c3)S(=O)(=O)CC4)c12 was 92.1

Lab note: measured %Inh of O=C(O)C(F)(F)F.O=c1[nH]ccc2nc(N[C@@H]3CCNC3)nc(Nc3cc(Cl)cc(Cl)c3)c12 was 84

Measured values drawn from paper PMC5540273 for this set.
